test system: MKN28; test: Cell viability drug screen, 12-point dose-response AUC; type: cell-based, human; conditions: MKN28 cells; 72 hours
Where a name gives a salt, the structure may show the parent alone.
Reported Metric: Average Area Under the Viability Curve (AUC), AUC norm value

Examples with answers:
CCCCc1oc2ccc(NS(C)(=O)=O)cc2c1C(=O)c1ccc(OCCCN(CCCC)CCCC)cc1 [Dronedarone HCl (Multaq), Dronedarone HCl] ... −0.1927
CC[C@@]1(O)C(=O)OCc2c1cc1n(c2=O)Cc2cc3ccccc3nc2-1 [Camptothecin] ... 0.3881
COc1cccc2c1C(=O)c1c(O)c3c(c(O)c1C2=O)C[C@@](O)(C(C)=O)C[C@@H]3O[C@H]1C[C@H](N)[C@H](O)[C@H](C)O1 [Daunorubicin HCl (Daunomycin HCl), Daunorubicin HCl] ... 2.146
CC(C)(C)c1ccc(C(O)CCCN2CCC(C(O)(c3ccccc3)c3ccccc3)CC2)cc1 (stereo not drawn) [Terfenadine] ... −0.2901
O=C(Nc1ccc([N+](=O)[O-])cc1Cl)c1cc(Cl)ccc1O [Niclosamide (Niclocide), Niclosamide] ... −0.3809

INPUT: Which Average Area Under the Viability Curve (AUC), AUC norm value is listed for C/C=C(\C)C(=O)N[C@@H](c1ccccc1)[C@@H](O)C(=O)O[C@H]1C[C@@]2(O)[C@@H](OC(=O)c3ccccc3)[C@@H]3[C@]4(OC(C)=O)CO[C@@H]4C[C@H](O)[C@@]3(C)C(=O)[C@H](OC(C)=O)C(=C1C)C2(C)C [Cephalomannine] ?
OUTPUT: −1.697

====

A collection of molecules and their measured area under the viability curve (AUC), normalized
test system: YCC11; experiment: Cell viability drug screen, 12-point dose-response AUC; format: cell-based, human; conditions: YCC11 cells; 72 hours; 12-point dose-response
Structures can show the parent of a compound that is named as a salt.
// return a plain number; no unit text

Examples with answers:
CC(C)[C@]12O[C@H]1[C@@H]1O[C@]13[C@]1(O[C@H]1C[C@H]1C4=C(CC[C@@]13C)C(=O)OC4)[C@@H]2O [Triptolide] ... 0.4144
Cc1cnc(NC(=O)Nc2cc(Br)c(C)cc2OC[C@@H]2CNCCO2)cn1 ... −2.027
O=C1c2c(O)ccc(O)c2C(=O)c2c(NCCNCCO)ccc(NCCNCCO)c21 [Mitoxantrone Hydrochloride] ... −1.252

INPUT: Which area under the viability curve (AUC), normalized is listed for `CCCCc1nc2cc(/C=C/C(=O)NO)ccc2n1CCN(CC)CC` ?
OUTPUT: −0.768

====

test system: NCC19; experiment: Cell viability drug screen, 12-point dose-response AUC; format: cell-based, human; conditions: NCC19 cells; 72 hours
Where a name gives a salt, the structure may show the parent alone.
Reported Metric: Average Area Under the Viability Curve (AUC), AUC norm value
// return a plain number; no unit text

INPUT: Which Average Area Under the Viability Curve (AUC), AUC norm value is listed for `CC[C@@]1(O)C(=O)OCc2c1cc1n(c2=O)Cc2cc3ccccc3nc2-1` ?
OUTPUT: 0.9854

INPUT: Which Average Area Under the Viability Curve (AUC), AUC norm value is listed for `Cc1ccc([N+](=O)[O-])cc1S(=O)(=O)N(C)/N=C/c1cnc2ccc(Br)cn12` ?
OUTPUT: 0.3535

INPUT: Which Average Area Under the Viability Curve (AUC), AUC norm value is listed for `O=C(/C=C/c1cccc(S(=O)(=O)Nc2ccccc2)c1)NO` ?
OUTPUT: 1.206

INPUT: Which Average Area Under the Viability Curve (AUC), AUC norm value is listed for Nc1nc(F)nc2c1ncn2[C@@H]1O[C@H](COP(=O)(O)O)[C@@H](O)[C@@H]1O [Fludarabine Phosphate (Fludara), Fludarabine Phosphate] ?
OUTPUT: 2.411

INPUT: Which Average Area Under the Viability Curve (AUC), AUC norm value is listed for `CO[C@H]1C(=O)[C@]2(C)[C@@H](OC)C[C@H]3OC[C@@]3(OC(C)=O)[C@H]2[C@H](OC(=O)c2ccccc2)[C@]2(O)C[C@H](OC(=O)[C@H](O)[C@@H](NC(=O)OC(C)(C)C)c3ccccc3)C(C)=C1C2(C)C` ?
OUTPUT: 0

INPUT: Which Average Area Under the Viability Curve (AUC), AUC norm value is listed for `CC[C@]1(O)C[C@@H]2CN(CCc3c([nH]c4ccccc34)[C@@](C(=O)OC)(c3cc4c(cc3OC)N(C)[C@H]3[C@@](O)(C(=O)OC)[C@H](OC(C)=O)[C@]5(CC)C=CCN6CC[C@]43[C@@H]65)C2)C1` ?
OUTPUT: 2.905

INPUT: Which Average Area Under the Viability Curve (AUC), AUC norm value is listed for CC(C)(C)c1ccc(C(O)CCCN2CCC(C(O)(c3ccccc3)c3ccccc3)CC2)cc1 (stereo not drawn) ?
OUTPUT: 3.135

INPUT: Which Average Area Under the Viability Curve (AUC), AUC norm value is listed for COC1=CC(c2cc3ccccc3[nH]2)=N/C1=C\c1[nH]c(C)cc1C [Obatoclax mesylate (GX15-070), Obatoclax mesylate] ?
OUTPUT: 1.604

INPUT: Which Average Area Under the Viability Curve (AUC), AUC norm value is listed for `CC[C@]1(O)C[C@H]2CN(CCc3c([nH]c4ccccc34)[C@@](C(=O)OC)(c3cc4c(cc3OC)N(C=O)[C@H]3[C@@](O)(C(=O)OC)[C@H](OC(C)=O)[C@]5(CC)C=CCN6CC[C@]43[C@@H]65)C2)C1` ?
OUTPUT: 5.039

INPUT: Which Average Area Under the Viability Curve (AUC), AUC norm value is listed for CCCCc1oc2ccc(NS(C)(=O)=O)cc2c1C(=O)c1ccc(OCCCN(CCCC)CCCC)cc1 [Dronedarone HCl (Multaq), Dronedarone HCl] ?
OUTPUT: −0.3711

INPUT: Which Average Area Under the Viability Curve (AUC), AUC norm value is listed for CCCCCCCCCCCCCCCC[n+]1ccccc1 [Cetylpyridinium Chloride] ?
OUTPUT: 1.205

INPUT: Which Average Area Under the Viability Curve (AUC), AUC norm value is listed for `CO[C@@H](C(=O)N1Cc2n[nH]c(NC(=O)c3ccc(N4CCN(C)CC4)cc3)c2C1)c1ccccc1` ?
OUTPUT: 1.885

====

system: SNU668; test: Cell viability drug screen, 12-point dose-response AUC; format: cell-based, human; details: SNU668 cells; 72 hours; 12-point dose-response
Structures can show the parent of a compound that is named as a salt.
Reported Metric: area under the viability curve (AUC), normalized
// return a plain number; no unit text

Examples with answers:
CC(C)C[C@H](NC(=O)CNC(=O)c1cc(Cl)ccc1Cl)B(O)O ... 1.1951
O=C1c2c(O)ccc(O)c2C(=O)c2c(NCCNCCO)ccc(NCCNCCO)c21 [Mitoxantrone Hydrochloride] ... −0.6581
COCCn1c2c([n+](Cc3cnccn3)c1C)C(=O)c1ccccc1C2=O ... −0.2961
COc1ncc(-c2ccc3nccc(-c4ccnnc4)c3c2)cc1NS(=O)(=O)c1ccc(F)cc1F ... 1.587
COC(=O)Nc1nc2ccc(Sc3ccccc3)cc2[nH]1 ... 0

Read the next record carefully.
INPUT: Which area under the viability curve (AUC), normalized is listed for `CCCCc1nc2cc(/C=C/C(=O)NO)ccc2n1CCN(CC)CC` ?
OUTPUT: 0.519

====

A collection of compounds and their measured area under the viability curve (AUC), normalized
system: MKN74; assay: Cell viability drug screen, 12-point dose-response AUC; format: cell-based, human; details: MKN74 cells; 72 hours; 12-point dose-response
Counter-ions that a name gives are not always drawn.
// return a plain number; no unit text

Examples with answers:
CC(=O)O[C@H]1C(=O)[C@@]2(C)[C@H]([C@H](OC(=O)c3ccccc3)[C@]3(O)C[C@H](OC(=O)[C@H](O)[C@@H](NC(=O)c4ccccc4)c4ccccc4)C(C)=C1C3(C)C)[C@]1(OC(C)=O)CO[C@@H]1C[C@@H]2O [Paclitaxel (Taxol), Paclitaxel] ... 0.186
CN(C)c1ccc(C(=C2C=CC(=[N+](C)C)C=C2)c2ccc(N(C)C)cc2)cc1 [Crystal Violet, Crystal violet] ... −0.5721
Nc1cc(C(F)(F)F)c(-c2cc(N3CCOCC3)nc(N3CCOCC3)n2)cn1 [BKM120] ... −0.05182

INPUT: Which area under the viability curve (AUC), normalized is listed for C/C(=C\c1csc(C)n1)[C@@H]1C[C@@H]2O[C@@H]2CCC[C@H](C)[C@H](O)[C@@H](C)C(=O)C(C)(C)[C@@H](O)CC(=O)O1 [Epothilone A] ?
OUTPUT: 0.2913

INPUT: Which area under the viability curve (AUC), normalized is listed for O=C1c2c(O)ccc(O)c2C(=O)c2c(NCCNCCO)ccc(NCCNCCO)c21 [Mitoxantrone Hydrochloride] ?
OUTPUT: −0.2914

INPUT: Which area under the viability curve (AUC), normalized is listed for COc1ncc(-c2ccc3nccc(-c4ccnnc4)c3c2)cc1NS(=O)(=O)c1ccc(F)cc1F [GSK2126458] ?
OUTPUT: 0

INPUT: Which area under the viability curve (AUC), normalized is listed for CC(/C=C/C(=O)NO)=C\[C@@H](C)C(=O)c1ccc(N(C)C)cc1 [Trichostatin A (TSA), Trichostatin A] ?
OUTPUT: 0.3005

INPUT: Which area under the viability curve (AUC), normalized is listed for CCCOc1ccc2nc(NC(=O)OC)[nH]c2c1 [Oxybendazole] ?
OUTPUT: 0.4498

INPUT: Which area under the viability curve (AUC), normalized is listed for Cc1ccc(C(=O)N(CCCN)[C@@H](c2oc3cc(Cl)ccc3c(=O)c2Cc2ccccc2)C(C)C)cc1 [SB 743921] ?
OUTPUT: 0.00599

INPUT: Which area under the viability curve (AUC), normalized is listed for C[C@@H]1O[C@@H](O[C@H]2C[C@@H](O)[C@]3(CO)[C@H]4[C@H](O)C[C@]5(C)[C@@H](C6=CC(=O)OC6)CC[C@]5(O)[C@@H]4CC[C@]3(O)C2)[C@H](O)[C@H](O)[C@H]1O [Oubain, Ouabain] ?
OUTPUT: −0.9472

INPUT: Which area under the viability curve (AUC), normalized is listed for COCCn1c2c([n+](Cc3cnccn3)c1C)C(=O)c1ccccc1C2=O [YM155] ?
OUTPUT: −1.305

INPUT: Which area under the viability curve (AUC), normalized is listed for COC(=O)Nc1nc2ccc(Sc3ccccc3)cc2[nH]1 [Fenbendazole] ?
OUTPUT: −0.2802

INPUT: Which area under the viability curve (AUC), normalized is listed for CC(C)C[C@H](NC(=O)[C@H](Cc1ccccc1)NC(=O)c1cnccn1)B(O)O [Bortezomib (Velcade), Bortezomib] ?
OUTPUT: 0

INPUT: Which area under the viability curve (AUC), normalized is listed for CCCCc1nc2cc(/C=C/C(=O)NO)ccc2n1CCN(CC)CC [SB939 (Pracinostat), Pracinostat] ?
OUTPUT: 0.3806

INPUT: Which area under the viability curve (AUC), normalized is listed for Nc1ccc(-c2ccc3ncc4ccc(=O)n(-c5cccc(C(F)(F)F)c5)c4c3c2)cn1 [Torin, Torin 2] ?
OUTPUT: −0.1868

INPUT: Which area under the viability curve (AUC), normalized is listed for C#Cc1cccc(Nc2ncnc3cc(OC)c(OCCCCCCC(=O)NO)cc23)c1 [CUDC-101] ?
OUTPUT: −0.5407

INPUT: Which area under the viability curve (AUC), normalized is listed for CC(C)[C@]12O[C@H]1[C@@H]1O[C@]13[C@]1(O[C@H]1C[C@H]1C4=C(CC[C@@]13C)C(=O)OC4)[C@@H]2O [Triptolide] ?
OUTPUT: −0.8231

INPUT: Which area under the viability curve (AUC), normalized is listed for Cc1cnc(NC(=O)Nc2cc(Br)c(C)cc2OC[C@@H]2CNCCO2)cn1 [LY2603618] ?
OUTPUT: −0.9084

INPUT: Which area under the viability curve (AUC), normalized is listed for CC(C)C[C@H](NC(=O)CNC(=O)c1cc(Cl)ccc1Cl)B(O)O [MLN2238] ?
OUTPUT: −0.2214
